- ASSAY_DETAILS: protein stability index of a GFP-peptide fusion (yeast GPS) (PSI 1-4); higher = more stable; sorted into four equal gates, so the index is relative within each strain
- RUN_PARAMETERS: doa10∆
This section presents sequences with their documented protein stability index values.
RESULT_TYPE: protein stability index

INSERT INTO assay_data (residue_string, recorded_result) VALUES
  ('EPKKPSFTFASSKTSQP [YOR098C/NUP1]', 2.93),
  ('TILQHLSEAWRCWKANI [PRP8]', 3.33),
  ('PVSVSRIARALKQEGAA [RPL18A]', 3.36),
  ('EWNGKSFQKKSNDKVVE [ISW2]', 3.14),
  ('TTLTIMRILPRETDPLV [RPT4]', 2.63),
  ('EETDDEDKQNIEINEDN [RRI2]', 3.52),
  ('IGDYILKSPVLSKLCVP [QCR7]', 1.55),
  ('YEADQRKLFPNWIKPSD [PRP8]', 2.99),
  ('ENLMVQRTCLMTVTFLI [YCS4]', 2.09),
  ('ISVGLYDTTPLLDTNSL [SKI6]', 2.57),
  ('KSAYANTEKDYKMVQEQ [SMC2]', 2.95),
  ('DGRVNRFYELEESLTVL [YJR042W/NUP85]', 2.28),
  ('KGTEASNDIIDKPYLLR [YDL116W/NUP84]', 3.33),
  ('MNYLLDNKINEIKLLEI [CSI1]', 2.91),
  ('AYSMGAQNQGGQVSMSQ [PGD1]', 3.15);

###

protein stability index values for the sequences below.
- ASSAY_DETAILS: protein stability index of a GFP-peptide fusion (yeast GPS) (PSI 1-4); higher = more stable; sorted into four equal gates, so the index is relative within each strain
- RUN_PARAMETERS: pdr5∆
RESULT_TYPE: protein stability index

INSERT INTO measurements (residue_string, result_type, recorded_result) VALUES
  ('CLNCEKSKLFEWKSEFV [SNM1]', 'protein stability index', 2.68),
  ('NSSSSTPNTNSNSTPNA [SWI1]', 'protein stability index', 2.98),
  ('ELRRFESSINTHPHAAD [SKI6]', 'protein stability index', 3.08),
  ('LDPISLILIPGETMWVP [RPN13]', 'protein stability index', 2.45),
  ('SDAMSIDEEDKDSESFS [YCG1]', 'protein stability index', 1.95),
  ('VNAITVAQQQVQRQIEQ [SNF5]', 'protein stability index', 3.14),
  ('KAEIPPEYAKVGDFLLQ [SIN4]', 'protein stability index', 1.93),
  ('NDTLPDEISPELLSKYK [SNU114]', 'protein stability index', 2.8),
  ('GKTNIALLTVLKALSHH [BRR2]', 'protein stability index', 1.54),
  ('IAPPVAPHDSEATLLTN [SNF5]', 'protein stability index', 2.82),
  ('TSLLYLSTLEPSTSITL [RPN9]', 'protein stability index', 1.89),
  ('LNVPVFQIVIEPLAIAL [ARP7]', 'protein stability index', 1.66),
  ('LLVNPDIDLETYSFIDN [YML103C/NUP188]', 'protein stability index', 2.6),
  ('LVQKFGGADQVTRTQQW [SWI1]', 'protein stability index', 3.06),
  ('NSPSSALRALQENGTIF [YDL088C/ASM4]', 'protein stability index', 2.05),
  ('DATANATANATANATAN [DSN1]', 'protein stability index', 3.04),
  ('ESLREIPYGPDFDNIEF [SEC65]', 'protein stability index', 3.12),
  ('QDVIKVLYQSNATHDED [SWP82]', 'protein stability index', 2.89),
  ('SFLSKHALYLAPSGIRM [SSN2]', 'protein stability index', 1.56),
  ('NGLGTSHINTNVGDNNS [ARP7]', 'protein stability index', 2.77),
  ('AAEKSFKPPKNKYKVVR [SEC65]', 'protein stability index', 3.08),
  ('HLDNSKSVFSSAGLDSA [RPN1]', 'protein stability index', 2.69),
  ('SNNQVIKMQRQFSQLND [MED6]', 'protein stability index', 3.04),
  ('AGQIPTGWNAKTYGISD [FAS2]', 'protein stability index', 1.36),
  ('NNLKNSGNSANNMNVNM [GAL11]', 'protein stability index', 2.9),
  ('AFHLHCINKWIKTRDAC [HRT1]', 'protein stability index', 2),
  ('YHGISKNDNIKKSVNKL [POP6]', 'protein stability index', 2.75),
  ('RELILAKKQNYKLTNDE [YCG1]', 'protein stability index', 3.35),
  ('LVSTLTTGISSTGAADG [SMC2]', 'protein stability index', 2.65),
  ('DILSKLYLLLARVFEIW [SNF11]', 'protein stability index', 2.36),
  ('MERLQRLMMNSKVGSAD [RPN11]', 'protein stability index', 2.98),
  ('LDKFTDGGLFTLFVRDQ [QCR2]', 'protein stability index', 3.14),
  ('TFQRVCQYMVACVPLLP [RPN1]', 'protein stability index', 2.42),
  ('KDNGMLIIDGQIIFGVV [RPO21]', 'protein stability index', 1.79),
  ('NWAKFTATASLGVIHKG [RPN2]', 'protein stability index', 1.81);

###

// values below are reported protein stability index
- ASSAY_DETAILS: protein stability index of a GFP-peptide fusion (yeast GPS) (PSI 1-4); higher = more stable; sorted into four equal gates, so the index is relative within each strain
- RUN_PARAMETERS: ubr1∆
RESULT_TYPE: protein stability index

INSERT INTO assay_data (residue_string, recorded_result) VALUES
  ('LDPINLPLDSQDDEYVK [PRP8]', 3.05),
  ('RNFKKANLVNKESDLLE [BRN1]', 1.43),
  ('GSFNEMKRNCGQIITLF [RMP1]', 2.87),
  ('IFVSILSDRANKNQDAF [ARP9]', 2.87);

###

- ASSAY_DETAILS: protein stability index of a GFP-peptide fusion (yeast GPS) (PSI 1-4); higher = more stable; sorted into four equal gates, so the index is relative within each strain
- RUN_PARAMETERS: doa10∆
Tick 1 if protein stability index is 3 or greater. Tick -1 if protein stability index is less than 3.

INSERT INTO assay_data (residue_string, assigned_class) VALUES
  ('LKLDKIIHVLTTMFENT [RGR1]', -1),
  ('DMDAESNESQNGKDSEI [SMC3]', 1),
  ('LQIAQLTLKHRQNKVQH [RPN10]', -1),
  ('MTVAHLIECLLSKVAAL [RPB2]', -1),
  ('DPPIIIFINYKQTADWL [PRP28]', -1),
  ('ICDPVHKHREARGLTAT [RPL15A]', 1),
  ('GVFDPASYSKYLIDHIK [RPL22B]', 1),
  ('QTIMKMGPLSNIAQMIP [SRP54]', -1),
  ('PSPYKTTVYRYSAAKKI [YAR002W/NUP60]', -1),
  ('LNEEAVIFLSSLLTLVG [YJL039C/NUP192]', -1),
  ('SVSMLLQYYILEYMNTA [RRI2]', -1),
  ('VGSVTYQVDEDVKSSLS [YJL039C/NUP192]', 1),
  ('ARAAKIAPRPLDLLRPV [RPL13B]', -1),
  ('IAGINKKKGLDENTSGK [PRP28]', 1),
  ('NKAQAKMDKRAKTSDSA [RPL8B]', 1),
  ('KTVKELRQLLKERYTVE [RRI1]', -1),
  ('KPENKTDKVSLSQPVSA [SIR4]', -1),
  ('MNVSTSTFQTRRRRLKK [RPB4]', 1);

###

- ASSAY_DETAILS: protein stability index of a GFP-peptide fusion (yeast GPS) (PSI 1-4); higher = more stable; sorted into four equal gates, so the index is relative within each strain
- RUN_PARAMETERS: ubr1∆
Each record's protein stability index is compared with Low (below 2), Mid (2 to below 3), High (3 or more) to give its class.

INSERT INTO measurements (residue_string, assigned_class) VALUES
  ('VDAGIALNSMCASIPIA [RRP46]', 'Low'),
  ('LEFARITPMNDDQCMLI [SIN4]', 'High'),
  ('GIGSLTDLMSIVQELLD [RPC34]', 'High'),
  ('VKPQYDEIHIPAPSKPV [BRR2]', 'Low'),
  ('VDEELGPSIYKTDPAGY [SCL1]', 'High'),
  ('SYFKNSVIVKFHSEPDR [LIN1]', 'Mid'),
  ('VEYKLTFVPTNSDKPRD [DIS3]', 'Low'),
  ('GNGELYMDCLLYDLRAS [SNU114]', 'Mid'),
  ('RNFLETVELQVGLKNYD [RPL1A]', 'High'),
  ('TIRVVTENKIFVEVERA [RPN5]', 'Mid'),
  ('SVLYQLSTSAFMEIVLE [YML031W/NDC1]', 'Mid'),
  ('AASLIMPFLDNQVNFKN [PRE7]', 'Low'),
  ('PTKTLTTKERKKSRLGN [PRP8]', 'Mid'),
  ('FRRDFLLREYDILSQIL [YJL039C/NUP192]', 'Mid'),
  ('KTFSRLDALTRHIKSKH [RPN4]', 'Low'),
  ('NLQVELLSEHDDHNGEV [YGL100W/SEH1]', 'High'),
  ('NERLEINQEKPVKLDEN [SIR4]', 'High'),
  ('EAPAGNIDTITDAMTES [MCD1]', 'High'),
  ('IMYQQMLKYRRLFIGDQ [SNF2]', 'Low'),
  ('VRIFTKIESEDDYILSG [SRB4]', 'Mid');
